- target_system: D(1A) dopamine receptor (Rattus norvegicus, UniProt P18901)
- Sequence (P18901 whole entry): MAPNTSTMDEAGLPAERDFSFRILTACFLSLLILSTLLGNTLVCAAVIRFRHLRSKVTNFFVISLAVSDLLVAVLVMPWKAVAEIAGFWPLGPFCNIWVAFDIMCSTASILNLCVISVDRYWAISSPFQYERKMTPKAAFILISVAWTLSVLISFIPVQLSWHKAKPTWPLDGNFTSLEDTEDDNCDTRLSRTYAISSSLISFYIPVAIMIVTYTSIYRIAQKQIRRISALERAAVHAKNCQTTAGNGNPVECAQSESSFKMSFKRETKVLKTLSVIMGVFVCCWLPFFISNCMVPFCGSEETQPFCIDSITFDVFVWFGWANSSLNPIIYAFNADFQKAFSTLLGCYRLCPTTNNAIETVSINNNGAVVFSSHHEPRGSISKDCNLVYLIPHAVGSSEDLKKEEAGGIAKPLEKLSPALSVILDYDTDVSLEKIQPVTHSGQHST
- method_description: Compound was evaluated for the inhibition of [3H]-SCH- 23390 binding to Dopamine receptor D1 of rat striatal membranes
Consider the following compounds; for each one, report its pIC50.
Answers are plain numbers, as −log10 of the molar value.

Field: example entries. Status: answers known.
[
  {
    "structure_notation": "CCCN(CCc1ccccc1)CCc1ccc(O)c(F)c1",
    "pIC50": 4.42
  },
  {
    "structure_notation": "CCCN(CC)CCc1ccc(F)c(O)c1",
    "pIC50": 4.95
  },
  {
    "structure_notation": "CCN(CCc1ccccc1)CCc1ccc(F)c(O)c1",
    "pIC50": 5.10
  },
  {
    "structure_notation": "CCCN(CCc1ccccc1)CCc1ccc(F)c(O)c1",
    "pIC50": 4.96
  }
]

For each listed entry, give its pIC50.
1. NCCc1ccc(F)c(O)c1
2. CCCN(CCC)CCc1ccc(F)c(O)c1

5.21
4.94

* * *

- target_system: D(2) dopamine receptor (Rattus norvegicus, UniProt P61169)
- Sequence (P61169 whole entry): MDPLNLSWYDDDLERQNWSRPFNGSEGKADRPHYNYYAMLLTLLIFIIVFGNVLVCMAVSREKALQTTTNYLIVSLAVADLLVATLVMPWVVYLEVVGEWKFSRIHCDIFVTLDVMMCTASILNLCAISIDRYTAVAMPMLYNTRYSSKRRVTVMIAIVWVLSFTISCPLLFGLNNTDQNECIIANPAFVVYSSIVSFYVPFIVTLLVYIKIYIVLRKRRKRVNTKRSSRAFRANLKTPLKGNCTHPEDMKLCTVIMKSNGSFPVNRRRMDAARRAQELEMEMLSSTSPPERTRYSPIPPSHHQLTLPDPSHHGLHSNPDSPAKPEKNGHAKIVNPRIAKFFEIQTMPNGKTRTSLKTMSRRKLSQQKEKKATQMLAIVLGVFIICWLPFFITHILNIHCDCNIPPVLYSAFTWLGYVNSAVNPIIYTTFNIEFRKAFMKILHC
- method_description: Compound was evaluated for the inhibition of [3H]spiperone binding to Dopamine receptor D2 of rat striatal membranes
- Assay type: cell membranes, Membrane
observation_type: pIC50
Give bare numbers, as −log10 of the molar value.

// query pIC50 value for entry "NCCc1ccc(F)c(O)c1"
5.33

Provenance of the data: ChEMBL document CHEMBL1124899
